Field: inhibition at 0.3 µM. Provide a value for each of the compounds that follow.
molecular target: BRD4 BD1 (Homo sapiens); construct: BRD2 BD1, BRD3 BD1 and BRD4 BD1 (Cisbio); purchased Cisbio; assay: Binding assay, BRD4 BD1 to acetylated histone H4 Peptide-Biotin (EPIgeneous Binding Domain Kit A); details: test compound at 300 nmol/L; read-out: Binding inhibition percentage BRD4 BD1
Give bare numbers, in %.

The examples below pair each entry with its known result.
>>> recorded_value("CCn1c(=O)cc(N2CCOCC2)c2cc(-c3cccnc3-c3ccccc3)ccc21 [Example 279]")
93
>>> recorded_value("CCn1c(=O)cc(N2CCOCC2)c2cc(-n3c(-c4ccc(C(F)(F)F)cc4)cn(C)c3=O)ccc21 [Example 270]")
94
>>> recorded_value("CCn1c(=O)cc(C2CC2)c2cc(-n3c(-c4ccc(C(F)(F)F)cc4)c[nH]c3=O)ccc21 [Example 268]")
73
>>> recorded_value("CCn1c(=O)cc(N2CCOCC2)c2cc(-n3c(-c4ccccc4)c[nH]c3=O)ccc21 [Example 3]")
94
>>> recorded_value("CCn1c(=O)cc(C2CC2)c2cc(-n3c(=O)[nH]c(=O)n3-c3ccccc3)ccc21 [Example 248]")
95
>>> recorded_value("CCC1C(=O)N(c2ccccc2)N(c2ccc3c(c2)c(C2CC2)cc(=O)n3CC)C1=O (stereo not shown) [Example 281]")
94

Field: inhibition at 0.3 µM. Fill in for each record below.
1. CCn1c(=O)cc(C(C)C)c2cc(N(C)C(=O)c3ccc(Cl)cc3)ccc21 [Example 16]
2. CCn1c(=O)cc(C2CCN(C)CC2)c2cc(C(=O)N(C)c3ccc(C)c(Cl)c3)ccc21 [Example 293]
3. CCn1c(=O)cc(C2CCN(C)CC2)c2cc(C(=O)N(C)c3ccc(C)cc3)ccc21 [Example 14]

Data returned:
1. 70
2. 94
3. 93

Data request: Which inhibition at 0.3 µM is reported for this compound? CCn1c(=O)cc(N2CCOCC2)c2cc(-n3cc(C)nc3-c3ccccc3)ccc21 [Example 256]
Data returned: 94
